Reported values of IC50 for individual entries
# Tested on: Human alphaherpesvirus 1
# Assay Name: Antiviral activity against HSV1 KOS infected in HFF cells incubated for 3 days by plaque reduction assay
# Assay type: functional, organism-based
# Condition Parameters: Human alphaherpesvirus 1, KOS, HFF, 72 h
Expressed in µM, but write only the number.

Some solved entries appear below for comparison.
Simply: Nc1ncnc2c1ncn2C[C@H]1COP(=O)(O)CO1 , Human alphaherpesvirus 1, IC50 = 30

Simply: COC(=O)[C@@H](N)Cc1ccc(OP2(=O)CO[C@@H](Cn3cnc4c(N)ncnc43)CO2)cc1 (mixture of isomers; form 1) , Human alphaherpesvirus 1, IC50 = 25

Simply: CC(C)CNC(=O)[C@@H](N)Cc1ccc(OP(=O)(O)CO[C@H](CO)Cn2cnc3c(N)ncnc32)cc1 , Human alphaherpesvirus 1, IC50 = 45

Simply: COC(=O)[C@H](N)Cc1ccc(OP2(=O)CO[C@@H](Cn3ccc(N)nc3=O)CO2)cc1 (mixture of isomers) , Human alphaherpesvirus 1, IC50 = 35

Simply: COC(=O)[C@H](Cc1ccc(OP2(=O)CO[C@@H](Cn3ccc(N)nc3=O)CO2)cc1)NC(=O)[C@@H](N)C(C)C (mixture of isomers) , Human alphaherpesvirus 1, IC50 = 15

More entries:
Simply: CC(C)(C)NC(=O)[C@H](N)Cc1ccc(OP2(=O)CO[C@@H](Cn3ccc(N)nc3=O)CO2)cc1 (mixture of isomers) , Human alphaherpesvirus 1, IC50 = 1.5

Simply: COC(=O)[C@H](Cc1ccc(OP2(=O)CO[C@@H](Cn3cnc4c(N)ncnc43)CO2)cc1)NC(=O)[C@@H](N)C(C)C (mixture of isomers) , Human alphaherpesvirus 1, IC50 = 35

Simply: CC(C)CNC(=O)[C@@H](N)Cc1ccc(OP2(=O)CO[C@@H](Cn3cnc4c(N)ncnc43)CO2)cc1 (mixture of isomers; form 1) , Human alphaherpesvirus 1, IC50 = 50

Simply: COC(=O)[C@@H](N)Cc1ccc(OP2(=O)CO[C@@H](Cn3ccc(N)nc3=O)CO2)cc1 (mixture of isomers) , Human alphaherpesvirus 1, IC50 = 25

Simply: Nc1ccn(C[C@H]2COP(=O)(O)CO2)c(=O)n1 , Human alphaherpesvirus 1, IC50 = 50

Simply: Nc1ncnc2c1ncn2C[C@@H](CO)OCP(=O)(O)O , Human alphaherpesvirus 1, IC50 = 35

Simply: Nc1nc2c(ncn2COCCO)c(=O)[nH]1 , Human alphaherpesvirus 1, IC50 = 0.6
